System: SW-620
Test: Percentage of apoptosis induced by compound in SW 620 cell line at 10 uM concentration after 72 h
Format: functional, Homo sapiens
# label = 1.0 if Apoptosis < 10% else 0.0

q: Report whether reported Apoptosis is lower than 10% (strictly) for `Cc1ccc2c(c1)sc1c(O)nc3ccc(/C(N)=N\C(C)C)cc3c12`
a: 0.0

q: Hello, is Apoptosis of the following molecule strictly smaller than 10%? `COC(=O)c1ccc(NC(=O)c2sc3cc(C#N)ccc3c2Cl)cc1`
a: 0.0

q: Hello, is Apoptosis of the following molecule strictly smaller than 10%? `COC(=O)c1ccc2c(c1)sc1c(O)nc3ccc(C(=N)NC(C)C)cc3c12`
a: 1.0

q: Does the reported Apoptosis of the following molecule sit strictly below 10%? `CC(C)/N=C(/N)c1ccc2c(c1)sc1c(O)nc3ccc(Br)cc3c12`
a: 0.0

q: Please state whether Apoptosis is below 10% for `COC(=O)c1ccc2nc(O)c3sc4cc(C(=N)NC(C)C)ccc4c3c2c1`
a: 1.0

q: Consider `CC(C)/N=C(/N)c1ccc2nc(O)c3sc4ccccc4c3c2c1` . Does its Apoptosis lie strictly below 10%?
a: 0.0

---

Tested on: HeLa
Test: Percentage of apoptosis induced by compound in HeLa cell line after at 10 uM concentration 72 h
Assay type: functional, Homo sapiens
Test readout: Apoptosis (%)
Write the number in % without appending the unit.

Lookup result for `COC(=O)c1ccc(NC(=O)c2sc3cc(C#N)ccc3c2Cl)cc1` ; measured Apoptosis: 52

// Apoptosis lookup, molecule = `CC(C)/N=C(/N)c1ccc2nc(O)c3sc4ccccc4c3c2c1` , result: 11

Kindly note the recorded Apoptosis for `COC(=O)c1ccc2nc(O)c3sc4cc(C(=N)NC(C)C)ccc4c3c2c1` , which is 15

// Apoptosis value for `COC(=O)c1ccc2c(c1)sc1c(O)nc3ccc(C(=N)NC(C)C)cc3c12` : 17

Apoptosis in this record for `Cc1ccc2c(c1)sc1c(O)nc3ccc(/C(N)=N\C(C)C)cc3c12` : 8

Looking up `CC(C)/N=C(/N)c1ccc2c(c1)sc1c(O)nc3ccc(Br)cc3c12` , I see its Apoptosis listed as 15

---

Test system: SW-620
Test: In vitro Inhibition on growth of human SW 620 colon carcinoma cell line
Assay type: functional, cell-based
Test readout: IC50

// compound `Cc1ccc2c(Cl)c(C(=O)Nc3ccc(/C(N)=N\C(C)C)cc3)sc2c1` , assay SW-620, IC50 value: 3.53 µM

# IC50 measured on SW-620 for item `Cc1ccc(NC(=O)c2sc3cc(C#N)ccc3c2Cl)cc1` = > 100 µM

Record `N#Cc1ccc(NC(=O)c2sc3ccccc3c2Cl)cc1` has SW-620 IC50 equal to > 100 µM

# IC50 measured on SW-620 for item `COC(=O)c1ccc(NC(=O)c2sc3cc(C#N)ccc3c2Cl)cc1` = 4.62 µM

Given the compound `CC(C)/N=C(/N)c1ccc(NC(=O)c2sc3cc(/C(N)=N\C(C)C)ccc3c2Cl)cc1` and test system SW-620, the measured IC50 is > 100 µM

// compound `CC(C)/N=C(/N)c1ccc(NC(=O)c2sc3cc(C#N)ccc3c2Cl)cc1` , assay SW-620, IC50 value: 8.02 µM

Considering `CC(C)/N=C(/N)c1ccc(NC(=O)c2sc3cc(Br)ccc3c2Cl)cc1` , its IC50 with SW-620 was recorded as 3.93 µM

Per the reported SW-620 data, `COC(=O)c1ccc2nc(O)c3sc4cc(C(=N)NC(C)C)ccc4c3c2c1` has IC50 of 8.11 µM

Known value: SW-620 IC50 of the compound `COc1ccc(NC(=O)c2sc3cc(C(=N)NC(C)C)ccc3c2Cl)cc1` equals 8.24 µM

Field IC50 (system: SW-620) for entry `CC(C)/N=C(/N)c1ccc2nc(O)c3sc4ccccc4c3c2c1` = 32.2 µM

---

Test system: MIA PaCa-2
Test: In vitro Inhibition on growth of human MiaPaCa-2 pancreatic carcinoma cell line
Type: functional, cell-based
IC50 strictly under 5 µM means Criterion met; at 5 µM or over means Criterion not met.

q: # check: IC50 < 5 µM for `CC(C)/N=C(/N)c1ccc2c(c1)sc1c(O)nc3ccc(/C(N)=N\C(C)C)cc3c12`
a: Criterion not met

q: Item `Cc1ccc2nc(O)c3sc4cc(/C(N)=N\C(C)C)ccc4c3c2c1` : IC50 beneath 5 µM, strictly?
a: Criterion not met

q: Bench note: check whether `COC(=O)c1ccc2c(c1)sc1c(O)nc3ccc(C(=N)NC(C)C)cc3c12` shows IC50 below 5 µM
a: Criterion not met

q: is_below(IC50, 5 µM) for `COC(=O)c1ccc2c(Cl)c(C(=O)Nc3ccccc3)sc2c1` ?
a: Criterion not met

q: Would you kindly verify if IC50 of `COc1ccc2c(Cl)c(C(=O)Nc3ccc(C(=N)NC(C)C)cc3)sc2c1` is strictly less than 5 µM?
a: Criterion met

q: Please state whether IC50 is below 5 µM for `Cc1ccc(NC(=O)c2sc3cc(C#N)ccc3c2Cl)cc1`
a: Criterion not met

q: Given the entry `CC(C)/N=C(/N)c1ccc(NC(=O)c2sc3cc(C#N)ccc3c2Cl)cc1` , would its reported IC50 be below 5 µM?
a: Criterion not met

q: Lab note: IC50 threshold 5 µM. Does this compound come in strictly under it? `CC(C)/N=C(/N)c1ccc2c(Cl)c(C(=O)Nc3ccc(Br)cc3)sc2c1`
a: Criterion met

q: Please state whether IC50 is below 5 µM for `Cc1ccc2c(Cl)c(C(=O)Nc3ccc(/C(N)=N\C(C)C)cc3)sc2c1`
a: Criterion met

---

I'd be grateful if you could share measured Apoptosis for these entries.
System: MIA PaCa-2
Test: Percentage of apoptosis induced by compound in MiaPaCa-2 cell line at 10 uM concentration after 72 h
Format: functional, Homo sapiens
Supply the numeric figure in %, leaving out any unit text.

Value of measured Apoptosis for the entry `COC(=O)c1ccc2c(c1)sc1c(O)nc3ccc(C(=N)NC(C)C)cc3c12` : 13

What the record says about `COC(=O)c1ccc2nc(O)c3sc4cc(C(=N)NC(C)C)ccc4c3c2c1` : Apoptosis is 14

So for `COC(=O)c1ccc(NC(=O)c2sc3cc(C#N)ccc3c2Cl)cc1` , the logged Apoptosis turned out to be 9

Summary for this compound, `CC(C)/N=C(/N)c1ccc2nc(O)c3sc4ccccc4c3c2c1` : Apoptosis is 11

Sure, the documented Apoptosis for `Cc1ccc2c(c1)sc1c(O)nc3ccc(/C(N)=N\C(C)C)cc3c12` is 17

Kindly note the recorded Apoptosis for `CC(C)/N=C(/N)c1ccc2c(c1)sc1c(O)nc3ccc(Br)cc3c12` , which is 11

---

System: SW-620
Test: In vitro Inhibition on growth of human SW 620 colon carcinoma cell line
Assay type: functional, cell-based
Consider the following compounds; for each one, report its pIC50.
Quick note: pIC50 values are minus log10 of concentrations in mol/L.

// recorded pIC50 for `COC(=O)c1ccc(NC(=O)c2sc3cc(C(=N)NC(C)C)ccc3c2Cl)cc1` : 5.44

The recorded pIC50 for `CC(C)/N=C(/N)c1ccc2c(c1)sc1c(O)nc3ccccc3c12` is 5.42

The compound listed as `CC(C)/N=C(/N)c1ccc2nc(O)c3sc4cc(Br)ccc4c3c2c1` shows pIC50 equal to 5.16

---

Exercise: state measured pIC50 for each of the compounds provided.
Tested on: MIA PaCa-2
Test: In vitro Inhibition on growth of human MiaPaCa-2 pancreatic carcinoma cell line
Type: functional, cell-based
Please note pIC50 is a logarithmic value: minus log10 of concentration in mol/L. Answer with that number alone.

Data point: `COc1ccc(NC(=O)c2sc3cc(C(=N)NC(C)C)ccc3c2Cl)cc1` ; pIC50 = 4.65

Value of measured pIC50 for the entry `CC(C)/N=C(/N)c1ccc2c(c1)sc1c(O)nc3ccc(Br)cc3c12` : 5.10

The value of pIC50 measured for the compound `CC(C)/N=C(/N)c1ccc2nc(O)c3sc4cc(Br)ccc4c3c2c1` turned out to be 5.43

Form: compound = `CC(C)/N=C(/N)c1ccc(NC(=O)c2sc3cc(/C(N)=N\C(C)C)ccc3c2Cl)cc1` ; pIC50 = 4.12

Looking up `COC(=O)c1ccc2c(Cl)c(C(=O)Nc3ccc(C(=N)NC(C)C)cc3)sc2c1` , I see its pIC50 listed as 5.46

Form field pIC50, entry `COc1ccc(NC(=O)c2sc3cc(C#N)ccc3c2Cl)cc1` : 4.04

The reported value for `COC(=O)c1ccc(NC(=O)c2sc3cc(C(=N)NC(C)C)ccc3c2Cl)cc1` in terms of pIC50 is 5.15

So, `Cc1ccc(NC(=O)c2sc3cc(/C(N)=N\C(C)C)ccc3c2Cl)cc1` ? Its pIC50 was 5.29

# pIC50 of `CC(C)/N=C(/N)c1ccc(NC(=O)c2sc3cc(Br)ccc3c2Cl)cc1` = 5.45

Entry `CC(C)/N=C(/N)c1ccc(NC(=O)c2sc3ccccc3c2Cl)cc1` , pIC50 reported as 5.16

Looking up `COc1ccc2c(c1)sc1c(O)nc3ccc(C(=N)NC(C)C)cc3c12` , I found its pIC50 recorded as 5.17

Measured pIC50, `CC(C)/N=C(/N)c1ccc2nc(O)c3sc4ccccc4c3c2c1` : 5.14

Lab book: pIC50 of `CC(C)/N=C(/N)c1ccc2nc(O)c3sc4cc(C#N)ccc4c3c2c1` noted as 4.38

Looking up `Cc1ccc2c(c1)sc1c(O)nc3ccc(/C(N)=N\C(C)C)cc3c12` , I see its pIC50 listed as 5.22

The recorded pIC50 for `CC(C)/N=C(/N)c1ccc2c(c1)sc1c(O)nc3ccccc3c12` is 4.74

Lab note: `CC(C)/N=C(/N)c1ccc2c(Cl)c(C(=O)Nc3ccccc3)sc2c1` gave pIC50 of 5.14

The compound `COC(=O)c1ccc2nc(O)c3sc4cc(C(=N)NC(C)C)ccc4c3c2c1` showed pIC50 equal to 5.16
